# ASSAY TARGET: hemolysin alpha from Staphylococcus aureus (Staphylococcus aureus)
QUANTITY KIND: IC50

# example entries with known answers
Cc1cc2[nH]c(=O)c(=O)[nH]c2cc1S(=O)(=O)Nc1ccc(-c2ccsc2)c(Cl)c1 [Compound 7]	< 30 nM
Cc1cc2[nH]c(=O)c(=O)[nH]c2cc1S(=O)(=O)Nc1ccc(-c2ccccc2)c(Cl)c1 [Compound 1]	< 30 nM
CC(C)c1cc2[nH]c(=O)c(=O)[nH]c2cc1S(=O)(=O)Nc1ccc(-c2ccncc2)c(Cl)c1 [Compound 159]	1000 to 3500 nM
O=c1[nH]c2cc(Cl)c(S(=O)(=O)Nc3ccc(-c4ccsc4)c(Cl)c3)cc2[nH]c1=O [Compound 32]	< 30 nM
Cc1cc2[nH]c(=O)c(=O)[nH]c2cc1S(=O)(=O)Nc1cc(C)c(-c2ccccc2Cl)c(C)c1 [Compound 104]	100 to 1000 nM

Record Cc1cc(NS(=O)(=O)c2cc3[nH]c(=O)c(=O)[nH]c3cc2Cl)ccc1-c1ccncc1 [Compound 155] . Reported IC50: 100 to 1000 nM

Record Cc1cc2[nH]c(=O)c(=O)[nH]c2cc1S(=O)(=O)Nc1ccc(-c2cccc(C(C)C)c2)c(Cl)c1 [Compound 39] . Reported IC50: 30 to 100 nM

====

The following compounds are listed with their measured IC50 values.
# ASSAY TARGET: hemolysin alpha from Staphylococcus aureus (Staphylococcus aureus, UniProt P09616)
# Sequence (P09616 27-319 limits assumed): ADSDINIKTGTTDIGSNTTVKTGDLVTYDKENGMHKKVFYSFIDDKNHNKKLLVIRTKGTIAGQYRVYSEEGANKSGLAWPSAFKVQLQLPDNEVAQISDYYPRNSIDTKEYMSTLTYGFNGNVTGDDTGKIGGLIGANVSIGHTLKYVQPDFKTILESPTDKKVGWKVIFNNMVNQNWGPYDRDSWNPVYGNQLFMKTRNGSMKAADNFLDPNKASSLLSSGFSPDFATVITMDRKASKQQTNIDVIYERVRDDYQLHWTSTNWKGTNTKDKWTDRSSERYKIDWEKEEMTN
# ASSAY PROTOCOL: cell-based

# example entries with known answers
O=c1[nH]c2cc(F)c(S(=O)(=O)Nc3ccc(-c4ccccc4)cc3)cc2[nH]c1=O [Compound 64]	30 to 100 nM
CC(C)c1cc2[nH]c(=O)c(=O)[nH]c2cc1S(=O)(=O)Nc1ccc(-c2ccoc2)c(Cl)c1 [Compound 161]	100 to 1000 nM
CC(C)c1cc2[nH]c(=O)c(=O)[nH]c2cc1S(=O)(=O)Nc1ccc(-c2cccc(Cl)c2)c(Cl)c1 [Compound 178]	100 to 1000 nM

Record Cc1cc2[nH]c(=O)c(=O)[nH]c2cc1S(=O)(=O)Nc1ccc(C(C)(C)C)cc1 [Compound 83] . Reported IC50: 100 to 1000 nM

====

# ASSAY TARGET: UniProt P09616
# ASSAY PROTOCOL: cell-based
# TEST PARAMETERS: LDH Assay EC50
pEC50: −log10 of the molar value.
Mark satisfied for reported pEC50 of 7 or greater; mark not satisfied for anything smaller.

Before answering, review these 3 worked examples.
Cc1cc2[nH]c(=O)c(=O)[nH]c2cc1S(=O)(=O)Nc1ccc(OC(F)(F)F)cc1 [drawing 469 (R^2 = CH3)]	satisfied
Cc1cc2[nH]c(=O)c(=O)[nH]c2cc1S(=O)(=O)Nc1ccc(C2CC2)cc1 [drawing 470 (R^2 = CH3)]	satisfied
Cc1cc(NS(=O)(=O)c2ccc3[nH]c(=O)c(=O)[nH]c3c2)ccc1Br [drawing 471 (R^2 = H), reference compound]	not satisfied

Continue with the compound presented below.
Reported pEC50 reaches at least 7 for O=c1[nH]c2ccc(S(=O)(=O)Nc3ccc(OC(F)(F)F)cc3)cc2[nH]c1=O [drawing 469 (R^2 = H), reference compound] ?
not satisfied

====

For hemolysin alpha from Staphylococcus aureus (Staphylococcus aureus, UniProt P09616), measured IC50 is reported for the entries below.

The reported IC50 value, hemolysin alpha from Staphylococcus aureus (Staphylococcus aureus, UniProt P09616), for Cc1cc2[nH]c(=O)c(=O)[nH]c2cc1S(=O)(=O)Nc1ccc(-c2cccc(N(C)C)c2)c(Cl)c1 [Compound 4] reads < 0.03 µM

The reported IC50 value, hemolysin alpha from Staphylococcus aureus (Staphylococcus aureus, UniProt P09616), for Cc1cc(NS(=O)(=O)c2cc3[nH]c(=O)c(=O)[nH]c3cc2Cl)cc(C)c1-c1ccncc1 [Compound 157] reads 1 to 3.5 µM

The reported IC50 value, hemolysin alpha from Staphylococcus aureus (Staphylococcus aureus, UniProt P09616), for Cc1cc2[nH]c(=O)c(=O)[nH]c2cc1S(=O)(=O)Nc1ccc2c(c1)CCCC2 [Compound 54] reads 0.03 to 0.1 µM

====

# ASSAY TARGET: S. aureus Alpha hemolysin (Staphylococcus aureus)
# ASSAY PROTOCOL: cell-based
# TEST PARAMETERS: A549-LDH Assay activity
pEC50: −log10 of the molar value.
The following molecules are listed with their measured pEC50 values.

# example entries with known answers
Cc1cc2[nH]c(=O)c(=O)[nH]c2cc1S(=O)(=O)Nc1cc(C)c(-c2cccc(N(C)C)c2)c(C)c1 [Compound 59]	6.00 to 7.00
Cc1cc2[nH]c(=O)c(=O)[nH]c2cc1S(=O)(=O)Nc1ccc(-c2ccc(F)cc2)c(C#N)c1 [Compound 377]	6.00 to 7.00
COc1ccccc1-c1c(C)cc(NS(=O)(=O)c2cc3[nH]c(=O)c(=O)[nH]c3cc2C)cc1C [Compound 102]	7.00 to 7.52
Cc1cc2[nH]c(=O)c(=O)[nH]c2cc1S(=O)(=O)Nc1ccc(-c2ccccc2)c(Cl)c1 [Compound 1]	7.00 to 7.52
O=c1[nH]c2cc(Cl)c(S(=O)(=O)Nc3ccc(-c4cccnc4)c(Cl)c3)cc2[nH]c1=O [Compound 48]	5.22 to 6.00

The reported pEC50 value, S. aureus Alpha hemolysin (Staphylococcus aureus), for Cc1cccc(-c2ccc(NS(=O)(=O)c3cc4[nH]c(=O)c(=O)[nH]c4cc3C)cc2)c1 [Compound 112] reads 6.00 to 7.00

The reported pEC50 value, S. aureus Alpha hemolysin (Staphylococcus aureus), for O=c1[nH]c2cc(F)c(S(=O)(=O)Nc3ccc(OC(F)(F)F)cc3)cc2[nH]c1=O [Compound 147] reads 6.00 to 7.00

====

# ASSAY TARGET: S. aureus Alpha hemolysin (Staphylococcus aureus, UniProt P09616)
# Sequence (P09616 27-319 limits assumed): as above
# ASSAY PROTOCOL: cell-based
# TEST PARAMETERS: A549-LDH Assay activity
pEC50: −log10 of the molar value.
QUANTITY KIND: pEC50

Cc1cc(NS(=O)(=O)c2cc3[nH]c(=O)c(=O)[nH]c3cc2F)ccc1-c1ccoc1 [Compound 168]	5.22 to 6.00
Cc1cc2[nH]c(=O)c(=O)[nH]c2cc1S(=O)(=O)Nc1ccc(C2CCCCC2)c(Cl)c1 [Compound 284]	6.00 to 7.00
Cc1cc2[nH]c(=O)c(=O)[nH]c2cc1S(=O)(=O)Nc1ccc(-c2cccc(N3CCCC3)c2)c(Cl)c1 [Compound 6]	6.00 to 7.00

Attention now shifts to the item below.
Record Cc1cc2[nH]c(=O)c(=O)[nH]c2cc1S(=O)(=O)Nc1ccc(Br)c(Cl)c1 [Compound 75] . Reported pEC50: 6.00 to 7.00

====

For hemolysin alpha from Staphylococcus aureus (Staphylococcus aureus), measured IC50 is reported for the entries below.

# example entries with known answers
Cc1cc(NS(=O)(=O)c2cc3[nH]c(=O)c(=O)[nH]c3cc2F)cc(C)c1-c1ccoc1	100 to 1000 nM
Cc1cc(NS(=O)(=O)c2cc3[nH]c(=O)c(=O)[nH]c3cc2Cl)cc(C)c1Br	100 to 1000 nM
O=c1[nH]c2cc(F)c(S(=O)(=O)Nc3ccc(-c4ccncc4)c(Cl)c3)cc2[nH]c1=O	100 to 1000 nM

Attention now shifts to the item below.
Record Cc1cc(NS(=O)(=O)c2cc3[nH]c(=O)c(=O)[nH]c3cc2Cl)ccc1-c1ccoc1 . Reported IC50: 30 to 100 nM

====

# ASSAY TARGET: hemolysin alpha from Staphylococcus aureus (Staphylococcus aureus, UniProt P09616)
# ASSAY PROTOCOL: cell-based
pEC50: −log10 of the molar value.
QUANTITY KIND: pEC50

# example entries with known answers
Cc1cc2[nH]c(=O)c(=O)[nH]c2cc1S(=O)(=O)Nc1ccc(-n2ccnn2)c(Cl)c1	6.00 to 7.00
O=c1[nH]c2cc([N+](=O)[O-])c(S(=O)(=O)Nc3ccc(OC(F)(F)F)cc3)cc2[nH]c1=O	6.00 to 7.00
Cc1cc2[nH]c(=O)c(=O)[nH]c2cc1S(=O)(=O)Nc1ccc(OC(F)(F)F)c(Br)c1	7.00 to 7.52
Cc1cc2[nH]c(=O)c(=O)[nH]c2cc1S(=O)(=O)Nc1ccc(-c2cccc(S(C)(=O)=O)c2)c(Cl)c1	6.00 to 7.00
Cc1cc2[nH]c(=O)c(=O)[nH]c2cc1S(=O)(=O)Nc1ccc(-c2ccc(C(N)=O)cc2)c(Cl)c1	6.00 to 7.00

The reported pEC50 value, hemolysin alpha from Staphylococcus aureus (Staphylococcus aureus, UniProt P09616), for Cc1ccc(-c2ccc(NS(=O)(=O)c3cc4[nH]c(=O)c(=O)[nH]c4cc3C)cc2Cl)cc1Cl reads 7.00 to 7.52

The reported pEC50 value, hemolysin alpha from Staphylococcus aureus (Staphylococcus aureus, UniProt P09616), for Cc1cc2[nH]c(=O)c(=O)[nH]c2cc1S(=O)(=O)Nc1ccc(-c2ccc3cn[nH]c3c2)c(Cl)c1 reads > 7.52
